protein stability index: recorded values
- assay-details: protein stability index of a GFP-peptide fusion (GPS, HEK-293T) (PSI 1-6); higher = more stable;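 further: 24-mer peptide tiles fused after GFP, lentivirally expressed, FACS-sorted into six equal bins by GFP/DsRed ratio, decoded by Illumina sequencing, PSI is the read-weighted mean bin number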
- test-parameters: treatment: MLN4924 1 uM, 8 h; c terminus: a fixed tail appended
Number only, no unit.

Exam item: Can you look up the measured protein stability index of GATVGRKSRRSRSESETSTMAAKK [C18orf25] for me?
Marked response: 5.48

Exam item: Can you look up the measured protein stability index of LRADNAFMLLTQARLFDEPQLASL [BTBD1] for me?
Marked response: 2.34

---
Exam item: Can you look up the measured protein stability index of MEPSPLSPSGAALPLPLSLAPPPL [ZBTB22] for me?
Marked response: 4.11

Exam item: Can you look up the measured protein stability index of QETAKEEDGSVELESQVQKDGVAD [C18orf25] for me?
Marked response: 5.61

Exam item: Can you look up the measured protein stability index of RVSRKPTAAMRCMCPLYDPNRQLW [GAN] for me?
Marked response: 2.34

Exam item: Can you look up the measured protein stability index of EESASRQRFGEALQDQEKAWGFPE [ELOA2] for me?
Marked response: 5

Exam item: Can you look up the measured protein stability index of FFLFIGVILFSSAVYFAEADDPTS [KCNA3] for me?
Marked response: 3.09

Exam item: Can you look up the measured protein stability index of IGGSGFLGQHMVEQLLARGYAVNV [NSDHL] for me?
Marked response: 2.23
